Recorded values, source patent US20220096516A1.

- Tested on: LHPP gene
- procedureSummary: High-throughput screening of saRNAs targeting LHPP promoter: LHPP mRNA by one-step RT-qPCR in Huh7 cells
- Assay type: cell-based, human
- conditionSet: 10 nM saRNA, 72 hours, relative to control (Mock)
d = 2'-deoxy (DNA); r = 2'-OH (RNA)
Items are presented alongside their recorded Fold of changes in relative LHPP mRNA expression level.
Returns: string containing the number followed by the unit.

Request: Which value of Fold of changes in relative LHPP mRNA expression level has been reported for RAG7-148: saRNA duplex; sense UUUUCUGCUUUUCCUGCUCTT (SEQ ID NO: 67), antisense GAGCAGGAAAAGCAGAAAATT (SEQ ID NO: 231) (sugars from the 5' end r19 d2, backbone not given here) in the records?
Response: 1.30 fold

Request: Input RAG7-178: saRNA duplex; sense AAUUUGCCUUUGACCUUUCTT (SEQ ID NO: 5), antisense GAAAGGUCAAAGGCAAAUUTT (SEQ ID NO: 169) (sugars from the 5' end r19 d2, backbone not given here)
Response: 1.76 fold

Request: Input RAG7-914: saRNA duplex; sense CUUCUUUGAAAGCUCAAAGTT (SEQ ID NO: 143), antisense CUUUGAGCUUUCAAAGAAGTT (SEQ ID NO: 307) (sugars from the 5' end r19 d2, backbone not given here)
Response: 1.14 fold

Request: Input RAG7-735: saRNA duplex; sense GGGUUUAACGCAUUGUGAUTT (SEQ ID NO: 114), antisense AUCACAAUGCGUUAAACCCTT (SEQ ID NO: 278) (sugars from the 5' end r19 d2, backbone not given here)
Response: 1.19 fold

In the following, a different substance is considered.
Request: Which value of Fold of changes in relative LHPP mRNA expression level has been reported for RAG7-707: saRNA duplex; sense UUCUUCUCAGCCCAGGUCCTT (SEQ ID NO: 8), antisense GGACCUGGGCUGAGAAGAATT (SEQ ID NO: 172) (sugars from the 5' end r19 d2, backbone not given here) in the records?
Response: 1.72 fold

---

- System: LHPP gene
- procedureSummary: High-throughput screening of saRNAs targeting LHPP promoter: LHPP mRNA by one-step RT-qPCR in Huh7 cells
- Format: cell-based, human
- conditionSet: 10 nM saRNA, 72 hours, relative to control (Mock)
d = 2'-deoxy (DNA); r = 2'-OH (RNA)
reportedEndpoint: Fold of changes in relative LHPP mRNA expression level (log2)
Output spec: scalar in log2, unitless text.

Request: Which value of Fold of changes in relative LHPP mRNA expression level (log2) has been reported for RAG7-905: saRNA duplex; sense AAGCUCAAAGCUAUGUUGGTT (SEQ ID NO: 92), antisense CCAACAUAGCUUUGAGCUUTT (SEQ ID NO: 256) (sugars from the 5' end r19 d2, backbone not given here) in the records?
Response: 0.31

Request: Input RAG7-686: saRNA duplex; sense UGCAUCCUCAUCUAUGCAGTT (SEQ ID NO: 86), antisense CUGCAUAGAUGAGGAUGCATT (SEQ ID NO: 250) (sugars from the 5' end r19 d2, backbone not given here)
Response: 0.32

Request: Input RAG7-897: saRNA duplex; sense AGCUAUGUUGGACCAGAAGTT (SEQ ID NO: 65), antisense CUUCUGGUCCAACAUAGCUTT (SEQ ID NO: 229) (sugars from the 5' end r19 d2, backbone not given here)
Response: 0.39

More entries:
Request: Which value of Fold of changes in relative LHPP mRNA expression level (log2) has been reported for RAG7-148: saRNA duplex; sense UUUUCUGCUUUUCCUGCUCTT (SEQ ID NO: 67), antisense GAGCAGGAAAAGCAGAAAATT (SEQ ID NO: 231) (sugars from the 5' end r19 d2, backbone not given here) in the records?
Response: 0.38
